These data points were gathered from patent US20240109974A1.

# targetUnderTest: T1, Cynomolgus TNFR2-His (Sino 90102-C08H) (cynomolgus monkey, UniProt A0A2K5VET2 132-366)
# T1 construct: Bought protein; also called cynomolgus monkey TNFR2; recombinant cynomolgus monkey TNFR2 protein; not shown: His tag
# T1 sequence: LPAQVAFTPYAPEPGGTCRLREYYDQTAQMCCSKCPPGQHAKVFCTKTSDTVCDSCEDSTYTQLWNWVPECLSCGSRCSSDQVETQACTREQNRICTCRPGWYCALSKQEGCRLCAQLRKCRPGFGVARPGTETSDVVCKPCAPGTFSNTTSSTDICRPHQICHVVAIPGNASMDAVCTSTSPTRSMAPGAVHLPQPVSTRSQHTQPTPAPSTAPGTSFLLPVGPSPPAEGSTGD
# measurementDescription: SPR (Biacore T200), antibody captured on Protein A chip
# Description: Biacore was used to detect the specific binding of a test anti-TNFR2 antibody to human and cynomolgus monkey TNFR2 proteins. In this experiment, a Protein A chip was used, the time required for the chip to capture the diluted antibody was determined by manual run, so that the Rmax of the saturated binding to an antigen was 50 RU. […] The affinity of an antibody for an antigen was determined by using multi-cycle dynamics. […]
Label condition met when koff is strictly below 0.0004 s⁻¹; at or above that, label condition not met.

Observe how each entry below is paired with its result.
binder	categoryLabel
001-Hu1 (antibody, V domains shown, Humanized form of #001; also called VH1 + VL1) VH: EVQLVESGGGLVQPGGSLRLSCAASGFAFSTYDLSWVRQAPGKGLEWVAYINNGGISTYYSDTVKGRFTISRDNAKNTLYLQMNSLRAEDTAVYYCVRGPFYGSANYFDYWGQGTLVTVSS VL: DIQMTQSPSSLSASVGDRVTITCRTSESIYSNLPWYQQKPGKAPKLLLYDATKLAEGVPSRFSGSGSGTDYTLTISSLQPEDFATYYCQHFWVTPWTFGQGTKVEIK	condition met
224-Hu6 (antibody, V domains shown, Humanized form of #224; also called VH8 + VL7) VH: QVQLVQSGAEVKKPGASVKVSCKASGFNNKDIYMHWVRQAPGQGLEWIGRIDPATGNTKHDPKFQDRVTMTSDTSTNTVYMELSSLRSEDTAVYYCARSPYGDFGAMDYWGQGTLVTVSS VL: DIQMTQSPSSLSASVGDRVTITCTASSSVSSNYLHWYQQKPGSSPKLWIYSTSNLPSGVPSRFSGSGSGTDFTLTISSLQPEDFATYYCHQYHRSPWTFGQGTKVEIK	condition not met
224-Hu4 (antibody, V domains shown, Humanized form of #224; also called VH9 + VL6) VH: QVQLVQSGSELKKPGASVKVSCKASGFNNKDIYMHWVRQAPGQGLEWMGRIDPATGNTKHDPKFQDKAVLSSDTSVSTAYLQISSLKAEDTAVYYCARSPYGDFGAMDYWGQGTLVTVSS VL: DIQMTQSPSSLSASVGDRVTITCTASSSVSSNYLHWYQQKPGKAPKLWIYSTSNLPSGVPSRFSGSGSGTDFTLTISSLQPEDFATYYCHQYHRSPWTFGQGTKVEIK	condition not met
224-Hu1 (antibody, V domains shown, Humanized form of #224; also called VH8 + VL6) VH: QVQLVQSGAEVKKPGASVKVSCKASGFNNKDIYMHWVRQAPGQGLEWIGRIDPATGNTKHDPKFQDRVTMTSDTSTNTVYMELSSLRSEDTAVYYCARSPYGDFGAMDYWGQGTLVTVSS VL: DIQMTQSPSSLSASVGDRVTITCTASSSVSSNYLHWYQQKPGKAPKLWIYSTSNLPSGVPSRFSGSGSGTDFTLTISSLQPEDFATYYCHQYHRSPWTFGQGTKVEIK	condition not met
001-Hu4 (antibody, V domains shown, Humanized form of #001; also called VH2 + VL4) VH: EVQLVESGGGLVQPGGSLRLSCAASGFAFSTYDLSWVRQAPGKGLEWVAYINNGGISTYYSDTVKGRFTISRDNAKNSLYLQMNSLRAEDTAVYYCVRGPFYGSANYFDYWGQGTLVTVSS VL: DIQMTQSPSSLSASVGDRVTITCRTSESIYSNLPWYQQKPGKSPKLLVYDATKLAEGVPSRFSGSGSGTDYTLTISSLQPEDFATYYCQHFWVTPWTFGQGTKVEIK	condition met

Does this binder meet the criterion koff < 0.0004 s⁻¹? 001-Hu5 (antibody, V domains shown, Humanized form of #001; also called VH1 + VL4) VH: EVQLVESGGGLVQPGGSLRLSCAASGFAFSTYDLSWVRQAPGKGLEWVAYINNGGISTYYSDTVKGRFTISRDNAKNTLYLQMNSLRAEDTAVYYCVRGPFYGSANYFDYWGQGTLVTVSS VL: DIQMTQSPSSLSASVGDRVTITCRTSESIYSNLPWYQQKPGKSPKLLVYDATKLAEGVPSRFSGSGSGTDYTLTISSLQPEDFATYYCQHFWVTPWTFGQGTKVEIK
condition met

Does this binder meet the criterion koff < 0.0004 s⁻¹? 219-Hu1 (antibody, V domains shown, also called VH3 + VL5) VH: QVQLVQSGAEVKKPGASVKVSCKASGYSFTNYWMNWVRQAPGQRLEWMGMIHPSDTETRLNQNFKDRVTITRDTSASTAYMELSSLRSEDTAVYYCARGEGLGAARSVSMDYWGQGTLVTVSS VL: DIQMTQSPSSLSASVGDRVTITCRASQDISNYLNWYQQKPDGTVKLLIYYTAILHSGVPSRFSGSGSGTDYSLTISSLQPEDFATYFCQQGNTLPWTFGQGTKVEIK
condition met
